Experiment: in vitro
Type: in vitro ADME
Conditions: human, Caco-2
Recorded Papp B→A at 90 min for the following molecules
Respond with the bare value in ×10⁻⁶ cm/s.

Some entries whose results are on file:
N#C[C@@]1(c2ccc3c(NC(=O)[C@@H](N)Cc4ccc(F)cc4)ncnn23)O[C@H](CO)[C@@H](OC(=O)CC2(N)CCCCC2)[C@H]1O [Compound 345] = 3.9
CCC(=O)O[C@H]1[C@@H](O)[C@](C#N)(c2ccc3c(NC(=O)OCOC(=O)C(C)(C)C)ncnn23)O[C@@H]1COC(=O)[C@@H](N)C(C)C [Compound 365] = 4.1
CC(=O)O[C@H]1[C@@H](O)[C@](C#N)(c2ccc3c(N)ncnn23)O[C@@H]1COC(=O)[C@@H](N)C(C)C [Compound 37] = 0.12
CCC(=O)O[C@@H]1[C@@H](COC(C)=O)O[C@@H](n2cnc3c(NC)nc(N)nc32)[C@]1(C)F [Compound 329] = 18
CCCC(=O)Nc1ncnn2c([C@]3(C#N)O[C@H](COC(=O)CC4CCCCC4)[C@@H](OCOC(=O)C(C)(C)C)[C@H]3O)ccc12 [Compound 409] = 0.1
N#C[C@@]1(c2ccc3c(NC(=O)c4ccccc4)ncnn23)O[C@H](COC(=O)CC2CCCCC2)[C@@H](O)[C@H]1O [Compound 285] = 0.9
CC(=O)Nc1ncnn2c([C@]3(C#N)O[C@H](COC(=O)CC4CCCCC4)[C@@H](OC(=O)[C@@H](N)C(C)C)[C@H]3O)ccc12 [Compound 348] = 13
CCC(=O)Nc1nc(NC)c2ncn([C@@H]3O[C@H](COC(C)=O)[C@@H](OC(=O)CC)[C@@]3(C)F)c2n1 [Compound 331] = 16

Q: Item CNc1nc(N)nc2c1ncn2[C@@H]1O[C@H](COC(C)=O)[C@@H](OC(=O)CC2CCCCC2)[C@@]1(C)F [Compound 194] has what recorded Papp B→A at 90 min?
Ans: 2.1

Q: Fill in the blank: the reported Papp B→A at 90 min of C[C@H]1CC[C@H](CC(=O)OC[C@H]2O[C@@](C#N)(c3ccc4c(N)ncnn34)[C@H](O)[C@@H]2O)CC1 [Compound 278] is ____.
Ans: 4.9

Q: // lookup Papp B→A at 90 min for CCC(=O)O[C@@H]1[C@@H](COC(=O)C(C)C)O[C@@H](n2cnc3c(NC)nc(N)nc32)[C@]1(C)F [Compound 235]
Ans: 4.5

Q: Need Papp B→A at 90 min, item CN(C(=O)CC1CCCCC1)c1nc(N)nc2c1ncn2[C@@H]1O[C@H](COC(=O)CC2CCCCC2)[C@@H](O)[C@@]1(C)F [Compound 291]
Ans: 17

Q: # lookup: Papp B→A at 90 min of CC(C)CC(=O)OC[C@H]1O[C@@](C#N)(c2ccc3c(N)ncnn23)[C@H](O)[C@@H]1OC(=O)CC(C)C [Compound 17]
Ans: 21

Q: Please give the measured Papp B→A at 90 min for this molecule: CC(C)CC(=O)N[C@H](C(=O)OC[C@H]1O[C@@](C#N)(c2ccc3c(N)ncnn23)[C@H](O)[C@@H]1O)C(C)C [Compound 255]
Ans: 5.3

====

Test: in vitro
Type: in vitro ADME
Settings: human; Caco-2 monolayer; ER>2 indicates potential efflux transporter substrate; read-out: ER (efflux ratio)
Metric Name: efflux ratio at 90 min
Lab note: write the figure by itself, no unit.

Q: Can you share its efflux ratio at 90 min? I mean this compound: CCC(=O)OC[C@H]1O[C@@](C#N)(c2ccc3c(N)ncnn23)[C@H](O)[C@@H]1O
Ans: 3.4

Q: Given N#C[C@@]1(c2ccc3c(N)ncnn23)O[C@H](COC(=O)Cc2ccccc2)[C@@H](OC(=O)Cc2ccccc2)[C@H]1O , state its recorded efflux ratio at 90 min.
Ans: 2.5

Q: Which efflux ratio at 90 min is reported for this compound? CC(C)(C)C(=O)OCO[C@H]1[C@@H](O)[C@](C#N)(c2ccc3c(N)ncnn23)O[C@@H]1COC(=O)Cc1ccccc1
Ans: 0.27

Q: Need efflux ratio at 90 min, item CCC(=O)O[C@H]1[C@@H](O)[C@](C#N)(c2ccc3c(N)ncnn23)O[C@@H]1COC(=O)Cc1ccccc1
Ans: 2.5

Q: What value of efflux ratio at 90 min has been recorded for this entry: CCCCC(=O)Nc1ncnn2c([C@]3(C#N)O[C@H](COC(=O)Cc4ccccc4)[C@@H](O)[C@H]3O)ccc12
Ans: 12

Q: Any idea what its efflux ratio at 90 min is? The compound is CC(C)C(=O)O[C@H]1[C@@H](O)[C@](C#N)(c2ccc3c(N)ncnn23)O[C@@H]1COC(=O)Cc1ccccc1
Ans: 1.8

Q: Quick one: efflux ratio at 90 min for N#C[C@@]1(c2ccc3c(NC(=O)[C@@H](N)Cc4ccc(F)cc4)ncnn23)O[C@H](COC(=O)Cc2ccccc2)[C@@H](O)[C@H]1O ?
Ans: 1.8

Q: Please give the measured efflux ratio at 90 min for this compound: CC(C)C(=O)Nc1ncnn2c([C@]3(C#N)O[C@H](COC(=O)Cc4ccccc4)[C@@H](OC(=O)[C@@H](N)C(C)C)[C@H]3O)ccc12
Ans: 2.4

Q: Recorded efflux ratio at 90 min of CC(C)C(=O)OC[C@H]1O[C@@](C#N)(c2ccc3c(N)ncnn23)[C@H](O)[C@@H]1OC(=O)Cc1ccccc1 , please.
Ans: 0.58
